- system name: human Nav1.7 (Homo sapiens)
- Sequence (Q15858 1-1977 isoform Q15858-3): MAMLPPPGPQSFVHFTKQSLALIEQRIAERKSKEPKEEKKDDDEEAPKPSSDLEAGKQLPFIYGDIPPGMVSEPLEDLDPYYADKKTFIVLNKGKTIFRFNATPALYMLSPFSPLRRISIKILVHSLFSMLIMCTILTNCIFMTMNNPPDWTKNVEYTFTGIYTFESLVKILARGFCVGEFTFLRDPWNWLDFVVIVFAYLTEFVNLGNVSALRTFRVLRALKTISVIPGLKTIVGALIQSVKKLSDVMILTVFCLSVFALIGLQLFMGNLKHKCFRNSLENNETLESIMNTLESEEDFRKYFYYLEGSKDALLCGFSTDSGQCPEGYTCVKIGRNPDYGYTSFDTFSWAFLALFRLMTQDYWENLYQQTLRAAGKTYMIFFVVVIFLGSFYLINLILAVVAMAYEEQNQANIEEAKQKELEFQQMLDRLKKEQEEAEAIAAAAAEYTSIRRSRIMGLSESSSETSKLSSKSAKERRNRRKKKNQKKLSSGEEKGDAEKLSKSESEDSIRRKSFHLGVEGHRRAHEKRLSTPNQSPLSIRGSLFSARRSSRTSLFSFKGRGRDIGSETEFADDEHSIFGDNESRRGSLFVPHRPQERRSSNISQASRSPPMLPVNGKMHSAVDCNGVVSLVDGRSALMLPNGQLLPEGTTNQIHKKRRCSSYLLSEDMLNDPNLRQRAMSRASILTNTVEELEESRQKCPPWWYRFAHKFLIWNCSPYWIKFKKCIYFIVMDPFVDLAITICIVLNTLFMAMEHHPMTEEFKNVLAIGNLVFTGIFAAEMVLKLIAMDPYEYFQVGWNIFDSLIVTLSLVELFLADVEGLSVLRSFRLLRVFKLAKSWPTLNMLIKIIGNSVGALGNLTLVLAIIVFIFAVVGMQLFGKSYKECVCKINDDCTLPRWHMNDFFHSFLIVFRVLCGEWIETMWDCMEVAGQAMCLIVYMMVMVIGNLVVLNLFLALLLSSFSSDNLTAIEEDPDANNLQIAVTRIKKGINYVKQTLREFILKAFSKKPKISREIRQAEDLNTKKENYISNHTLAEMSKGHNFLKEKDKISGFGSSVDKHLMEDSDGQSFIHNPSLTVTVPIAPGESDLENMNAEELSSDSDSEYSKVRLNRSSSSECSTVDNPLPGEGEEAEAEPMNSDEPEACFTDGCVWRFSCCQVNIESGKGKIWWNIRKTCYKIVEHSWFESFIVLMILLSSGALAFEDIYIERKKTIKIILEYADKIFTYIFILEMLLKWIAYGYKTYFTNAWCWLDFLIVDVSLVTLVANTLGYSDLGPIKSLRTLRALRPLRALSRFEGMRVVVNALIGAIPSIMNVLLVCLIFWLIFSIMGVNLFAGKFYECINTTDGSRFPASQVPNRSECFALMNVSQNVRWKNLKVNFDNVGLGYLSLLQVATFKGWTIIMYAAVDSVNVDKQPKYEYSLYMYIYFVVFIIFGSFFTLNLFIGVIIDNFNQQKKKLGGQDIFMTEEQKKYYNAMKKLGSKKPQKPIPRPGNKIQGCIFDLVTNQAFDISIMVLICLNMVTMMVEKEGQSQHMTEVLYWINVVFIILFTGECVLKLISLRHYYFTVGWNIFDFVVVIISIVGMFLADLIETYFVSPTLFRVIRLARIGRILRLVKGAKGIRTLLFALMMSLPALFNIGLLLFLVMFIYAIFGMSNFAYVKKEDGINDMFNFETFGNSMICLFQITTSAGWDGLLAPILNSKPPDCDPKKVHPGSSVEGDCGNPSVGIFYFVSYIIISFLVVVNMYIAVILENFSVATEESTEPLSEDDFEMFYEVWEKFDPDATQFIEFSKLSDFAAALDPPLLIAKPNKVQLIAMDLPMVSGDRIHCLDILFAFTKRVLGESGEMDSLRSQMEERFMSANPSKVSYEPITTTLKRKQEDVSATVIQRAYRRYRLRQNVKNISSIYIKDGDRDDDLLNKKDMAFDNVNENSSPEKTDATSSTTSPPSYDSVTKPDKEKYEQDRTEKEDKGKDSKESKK
- test summary: FLIPR or FLIPR TETRA sodium dye assay with KCl and test article pre-incubation (CoroNa Green, veratridine + scorpion venom)
- Assay type: cell-based

mol	system name	IC50 (µM)
NC(=O)N1CCN(c2ccc(C(F)(F)F)cc2)c2ccc(-c3cccc([C@H](O)CO)n3)cc2C1	human Nav1.7 (Homo sapiens)	0.973
CS(=O)(=O)N1CCN(c2ccc(C(F)(F)F)cc2)c2ccc(-c3cccc([C@H](O)CO)n3)cc2C1	human Nav1.7 (Homo sapiens)	0.469
NC(=O)CN1CCN(c2ccc(C(F)(F)F)cc2)c2ccc(-c3cccc([C@H](O)CO)n3)cc2C1	human Nav1.7 (Homo sapiens)	1.05
OC[C@@H](O)c1cccc(-c2ccc3c(c2)CN(CC2CC2)CCN3c2ccc(C(F)(F)F)cc2)n1	human Nav1.7 (Homo sapiens)	1.32
